Assay: viability loss with induced miR-34 in A549 – imaging, A549 dox-inducible miR-34, nuclei and caspase counts, primary screen (AID 1347080); further: test concentration not given here
Conditions: A549 miR-34 inducible, Hoechst nuclei count, 48 h; measured here: relative caspase fold change +Dox/-Dox
measuredMetric: fold change
// no unit string in output, number only

Worked cases, answers included:
compound=O=C(O)Cc1c[nH]c2ccc(O)cc12 measuredmetric="fold change" observedresult=0.669
compound=Cc1nc(N=Nc2cc(S(=O)(=O)O)c3cc([N+](=O)[O-])cc(S(=O)(=O)O)c3c2)c(COP(=O)(O)O)c(C=O)c1O measuredmetric="fold change" observedresult=1.61
compound="C[C@]12CCC3c4ccc(O)cc4CCC3C1CCC2O (stereo not given in full)" measuredmetric="fold change" observedresult=1.15
compound=Nc1nc2c(ncn2[C@@H]2O[C@H](CO)[C@@H](O)[C@@H]2O)c(=O)[nH]1 measuredmetric="fold change" observedresult=1.54
compound=COc1cc(-c2ncn(C=CC(=O)OC(C)C)n2)cc(C(F)(F)F)c1 measuredmetric="fold change" observedresult=0.634

Q. Entry under review: CCCCC[C@H](O)/C=C/[C@H]1OC(O)C[C@H](O)[C@@H]1C/C=C\CCCC(=O)O (stereo not given in full) . Reported fold change?
A. 1.59

Q. Param item: COc1ccc2c(C(=O)N(C)C3CCN(C)C3)cc(-c3cnn(C)c3)nc2c1 (stereo not given)
A. 1.02

Q. Param item: COC(=O)C=CC(=O)OC
A. 0.928

Q. Param item: C#C[C@@]1(O)CC[C@H]2[C@@H]3CCC4=CC(=O)CC[C@@H]4[C@@H]3CC[C@@]21CC
A. 0.428

Q. Param item: CCNC(=O)C1OC(n2cnc3c(N)nc(NCCc4ccc(CCC(=O)O)cc4)nc32)C(O)C1O (stereo not given)
A. 0.733

* * *

Recorded cell count for the following compounds
Experiment: viability loss with induced miR-34 in A549 – imaging, A549 dox-inducible miR-34, nuclei and caspase counts, primary screen (AID 1347080); further: test concentration not given here
Conditions: A549 miR-34 inducible, Hoechst nuclei count, 48 h; measured here: total cells with miR-34 induction; stronger effect = lower value
// no unit string in output, number only

compound=CCNc1nc(Nc2cc(F)c(C(=O)N3CCOCC3)cc2OC)ncc1C(F)(F)F measuredmetric="cell count" observedresult=8080
compound=COc1ccc(C=CC(=O)O)cc1O measuredmetric="cell count" observedresult=9250
compound=CCOc1nc2cccc(C(=O)O)c2n1Cc1ccc(-c2ccccc2-c2noc(=O)[nH]2)cc1 measuredmetric="cell count" observedresult=8580
compound=CS(=O)(=O)c1ccc([C@@H](O)[C@@H](COC(=O)CN)NC(=O)C(Cl)Cl)cc1 measuredmetric="cell count" observedresult=9390
compound=CN(Cc1noc(C2CCCC2)n1)C(=O)c1nc(=O)[nH]c2ccccc12 measuredmetric="cell count" observedresult=8520

Q. Entry under review: CN1CCN(NC(=S)Nc2ccc(S(N)(=O)=O)cc2)CC1 . Reported cell count?
A. 8440

Q. Param item: CC#C[C@]1(O)CCC2C3CCC4=CC(=O)CCC4=C3C(c3ccc(N(C)C)cc3)C[C@@]21C (some centres not stated)
A. 5600

Q. Param item: COc1ccc2c3c([nH]c2c1)[C@H]1C[C@H]2[C@H](C[C@@H](O)[C@H](OC)[C@H]2C(=O)O)CN1CC3
A. 9000

Q. Param item: CC1=C(C(=O)OC2CCCCC2)C(c2ccc([N+](=O)[O-])cc2)C2=C(CC(C)(C)CC2=O)N1 (configuration not stated)
A. 1480

Q. Param item: NC(=O)NC(Cc1ccccc1)C(=O)O (configuration not stated)
A. 8700

Q. Param item: CC[C@H](C)[C@H](NC(=O)c1nc2ccccc2c(=O)[nH]1)C(=O)OC
A. 7550
